assayed_system: human GLP-1 receptor (human, UniProt P43220 24-463)
experiment_summary: cell-based or functional assay
*1 amine or outer side, *2 acyl side, *3 side chain or, on linkers, in order; H or OH if unused. Where no end group is shown, it is not given here. Side-chain parts run from the residue outwards. [ ]: non-standard residue; d: D form. The star is where a group is joined. γGlu = O=C(O)[C@H](CCC(=O)[*:2])N[*:1]; Palmitoyl = CCCCCCCCCCCCCCCC(=O)*; Dab = NCC[C@H](N)C(=O)O
Hi! Just check whether EC50 hGLP-1R (cAMP formation) is below 10 pM. Below gives true, equal or above gives false.

As a guide, the following entries are already answered.
Criterion: EC50 hGLP-1R (cAMP formation) strictly below 10 pM. Is it met by HSQGTFTSDLSKQMDSRAAQLFIEWLKNGGPSSGAPPPS-NH2 [SEQ ID NO: (22)] ?
true

Strictly below 10 pM in EC50 hGLP-1R (cAMP formation)? HSQGTFTSDLSKQMDSRRAQDFIEWLKNGGPSSGAPPPS-{NH‑CH2‑CH2‑S‑tBu} [SEQ ID NO: (36)]
false

New cases:
Just wondering, is EC50 hGLP-1R (cAMP formation) of HSQGTFTSDLSKQMDSRRAQDFIEWLKNGGPSSGAPPPS-NH2 [SEQ ID NO: (9)] below 10 pM?
false

Answer whether the binder H[dS]QGTFTSDLSKQMESRRAQDFIEWLKSGGPSSGAPPPS[Dab]([γGlu-Palmitoyl])-NH2 [SEQ ID NO: (89)] has EC50 hGLP-1R (cAMP formation) strictly less than 10 pM
true

Dear colleague, could you confirm whether EC50 hGLP-1R (cAMP formation) of H[dS]QGTFTSDLSKQMESRRAQDFIEWLKSGGPSSGAPPPSK(6‑((4,4-diphenyl-cyclohexyloxy)-hydroxy-phosphoryloxy)‑hexanoyl)-NH2 [SEQ ID NO: (107)] falls below 10 pM? Thanks.
true

Hi there! Is EC50 hGLP-1R (cAMP formation) for H[dA]QGTFTSDLSKQMDSRRAQDFIEWLKNGGPSSGAPPPS-NH2 [SEQ ID NO: (40)] below 10 pM, do you know?
true

Please check: EC50 hGLP-1R (cAMP formation) for H[dS]QGTFTSDLSKQMDSRRAQDFIEWLKN[dA]GPSSGAPPPSK([γGlu-Palmitoyl])-NH2 [SEQ ID NO: (68)] , strictly under 10 pM or not?
false

Hi there! Is EC50 hGLP-1R (cAMP formation) for H[dS]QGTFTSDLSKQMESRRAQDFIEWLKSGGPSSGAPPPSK([γGlu-tocopheryl‑succinyl])-NH2 [SEQ ID NO: (86)] below 10 pM, do you know?
false

Dear reviewer, please state whether HSQGTFTSDLSKQMDSRRAQDFIEWLKNGGPSSGAPPPS-{NH‑(CH2)5‑OH} [SEQ ID NO: (50)] has EC50 hGLP-1R (cAMP formation) strictly beneath 10 pM.
false
